Molecular target: UniProtKB P05177
Sequence (P05177 whole entry): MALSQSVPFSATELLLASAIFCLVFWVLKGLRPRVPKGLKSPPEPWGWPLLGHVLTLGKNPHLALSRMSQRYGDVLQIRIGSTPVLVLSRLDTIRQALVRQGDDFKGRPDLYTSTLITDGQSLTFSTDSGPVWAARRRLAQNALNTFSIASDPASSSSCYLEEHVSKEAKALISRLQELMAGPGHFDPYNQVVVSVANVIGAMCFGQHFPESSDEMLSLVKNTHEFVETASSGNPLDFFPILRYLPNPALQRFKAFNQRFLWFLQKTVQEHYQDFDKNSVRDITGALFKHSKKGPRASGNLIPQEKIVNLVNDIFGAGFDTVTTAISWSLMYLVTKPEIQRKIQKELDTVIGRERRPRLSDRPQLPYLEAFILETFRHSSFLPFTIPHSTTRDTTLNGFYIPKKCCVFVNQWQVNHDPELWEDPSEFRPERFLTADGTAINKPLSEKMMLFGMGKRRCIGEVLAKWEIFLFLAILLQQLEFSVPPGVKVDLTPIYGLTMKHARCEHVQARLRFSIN
Assay: biochemical
pIC50: −log10 of the molar value.
# key: entry, value: pIC50
propertyMeasured: pIC50

[[record]]
molecule = "C[C@H]1[C@H](C)CC[C@]2(C(=O)O)CC[C@]3(C)C(=CC[C@@H]4[C@@]5(C)CC[C@H](O)C(C)(C)[C@@H]5CC[C@]43C)[C@H]12"
assaytarget = "UniProtKB P05177"
propertymeasured = "pIC50"
result = "< 4.00"

[[record]]
molecule = "CC1(C)CC[C@]2(C(=O)O)CC[C@]3(C)C(=CC[C@@H]4[C@@]5(C)CC[C@H](O)C(C)(C)[C@@H]5CC[C@]43C)[C@@H]2C1"
assaytarget = "UniProtKB P05177"
propertymeasured = "pIC50"
result = "< 4.00"

[[record]]
molecule = "COc1cc(C[C@H]2C(=O)OC[C@@H]2Cc2ccc3c(c2)OCO3)cc(OC)c1OC [(-)-Yatein]"
assaytarget = "UniProtKB P05177"
propertymeasured = "pIC50"
result = 4.14


Entry source: paper PMC6017200
